# EXPERIMENTAL DETAILS: Plasma pharmacokinetics
# Type: in vivo, human
# COND: human, plasma, oral, T1/2, overall, as summarised in the abstract
METRIC: half-life

SMILES INPUT: CC(C)n1nc(-c2ccc3oc(N)nc3c2)c2c(N)ncnc21
METRIC: half-life
READOUT VALUE: 5.9 to 7.6 h

====

# EXPERIMENTAL DETAILS: Plasma pharmacokinetics
# Format: in vivo, human
# COND: human, plasma, oral, Mean Cmax, cycle 1 day 1; across all QD doses

SMILES INPUT: CC(C)n1nc(-c2ccc3oc(N)nc3c2)c2c(N)ncnc21
Cmax: 23.9 to 56.9 ng/mL

====

# EXPERIMENTAL DETAILS: Plasma pharmacokinetics
# Format: in vivo, human
# COND: human, plasma, oral, Mean AUC from 0–24 h (AUC24), cycle 1 day 1; across QD doses
METRIC: AUC

COMPOUND: CC(C)n1nc(-c2ccc3oc(N)nc3c2)c2c(N)ncnc21 [sapanisertib]
READOUT VALUE: 138 to 315 ng·h/mL
